Biological target: T1, recombinant human CD3 epsilon/gamma heterodimer (human, UniProt P07766 23-126; P09693 23-116)
T1 construct: Recombinant protein in solution (200-50 nM) in the Octet assay; also called hCD3 E/G
T1 sequence (P07766 23-126, chain 1 of 2): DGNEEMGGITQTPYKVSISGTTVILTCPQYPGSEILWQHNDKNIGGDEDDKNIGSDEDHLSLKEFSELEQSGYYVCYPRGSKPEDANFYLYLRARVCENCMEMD
T1 sequence (P09693 23-116, chain 2 of 2): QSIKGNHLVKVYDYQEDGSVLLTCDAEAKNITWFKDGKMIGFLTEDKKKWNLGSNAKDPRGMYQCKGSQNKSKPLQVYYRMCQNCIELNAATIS
Assay: Octet BLI, mAb on FAB2G sensor, hCD3 E/G 200-50 nM; R^2 0.99
Quick reference for koff among some binders
Quick reminder: number only, in s⁻¹, skip the unit.

# example entries with known answers
BINDER	koff, s⁻¹
ABL-CD3-7 (antibody, V domains shown, Chimeric hybridoma mAb: human V, CH1, upper hinge; mouse middle hinge, CH2, CH3) VH: EVQLVESGGGLVKPGGSLRLSCAASGFTFSRYSMNWVRQAPGKGLKWVSSISSSGSYKYYADSVKGRFTISRDNAKNSLYLQMNSLRAEDTAVYYCAREPPTLGMDYWGQGTLVTVSS VL: NFMLTQPHSVSESPGKTVTISCTRSSGSIASNYVQWYQQRPGSSPTTVIYEDNQRPSGVPDRFSGSIDSSSNSASLTISGLKTEDEADYYCQSFDNSNRVFGGGTKLTVL	0.00142
ABL-CD3-57 (antibody, V domains shown, Chimeric hybridoma mAb: human V, CH1, upper hinge; mouse middle hinge, CH2, CH3) VH: EVQLVESGGGLVKPGGSLRLSCAASGFTFSSYTMNWVRQAPGKGLEWVSSISTSSRYIYYTDSVKGRFTISRDDAKNSLYLQMNSLRAEDTAVYYCTRNWGYDVFDIWGQGTMVIVSS VL: QPVLTQPSSHSASSGASVRLTCMLSSGFSVGDFWIRWYQQKPGNPPRYLLYYHSDSNKGQGSGVPSRFSGSNDASANAGILRISGLQPEDEADYYCGTWHSNSKTQVFGGGTKLTVL	0.00026

Please find the next binder below.
Could you share which koff value was measured for ABL-CD3-5 (antibody, V domains shown, Chimeric hybridoma mAb: human V, CH1, upper hinge; mouse middle hinge, CH2, CH3) VH: EVQLVESGGGLVQPGGSLRLSCAASGFTFSRYSMNWVRQAPGKGLEWVSYISSSSSSIYYADSVKGRFTISRDNAKNSLYLQMNSLRDEDTAVYYCARDRRATLDYWGQGTLVTVSS VL: NFMLTQPHSVSESPGKTVTISCTRSSGSIASNYVQWYQQRPGSSPTTVIYEDNQRPSGVPDRFSGSIDSSSNSASLTISGLKTEDEADYYCQSYDSSNHVFGGGTKLTVL ?
0.0449
